# Experimental Target: IRAK4 enzyme (Homo sapiens)
# Sequence (Q9NWZ3 whole entry): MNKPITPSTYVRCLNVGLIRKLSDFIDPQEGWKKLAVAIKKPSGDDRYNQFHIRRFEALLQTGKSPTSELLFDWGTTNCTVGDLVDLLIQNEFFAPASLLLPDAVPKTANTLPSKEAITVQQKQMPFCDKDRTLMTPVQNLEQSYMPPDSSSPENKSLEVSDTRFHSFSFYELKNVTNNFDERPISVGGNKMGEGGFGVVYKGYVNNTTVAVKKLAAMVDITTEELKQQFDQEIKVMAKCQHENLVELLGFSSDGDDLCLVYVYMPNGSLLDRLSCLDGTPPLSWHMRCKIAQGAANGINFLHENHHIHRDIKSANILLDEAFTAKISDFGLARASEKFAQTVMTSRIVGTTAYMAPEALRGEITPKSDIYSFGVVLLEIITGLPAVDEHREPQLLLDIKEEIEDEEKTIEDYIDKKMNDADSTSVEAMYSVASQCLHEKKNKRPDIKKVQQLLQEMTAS
# Assay Info: IRAK4 enzyme inhibition degree (bead-based kinase assay, peptide substrate BMKC-2, 100 μM ATP)
# Type: biochemical
# Test Context: compound 1 μM
Assign Y whenever inhibition at 1 µM does not fall below 40%; assign N whenever it does.

[
  {
    "Compound": "COc1cncc(-c2ccc3[nH]c4nccc(N[C@H]5CC[C@H](N6CCN(S(C)(=O)=O)CC6)CC5)c4c3c2)c1 [Compound 17c]",
    "Assigned Category": "Y"
  },
  {
    "Compound": "COC(=O)c1ccc2c(c1)[nH]c1ncnc(Nc3ccc(N4CCOCC4)cc3)c12",
    "Assigned Category": "N"
  },
  {
    "Compound": "c1cc(-c2ccc3c(c2)[nH]c2ncnc(N[C@H]4CC[C@H](N5CCOCC5)CC4)c23)ccn1",
    "Assigned Category": "Y"
  },
  {
    "Compound": "Fc1cncc(-c2ccc3[nH]c4ncnc(N[C@H]5CC[C@H](N6CCOCC6)CC5)c4c3n2)c1 [Compound 23a]",
    "Assigned Category": "Y"
  },
  {
    "Compound": "Cn1cnnc1-c1ccc2[nH]c3ncnc(N[C@H]4CC[C@H](N5CCOCC5)CC4)c3c2c1",
    "Assigned Category": "Y"
  },
  {
    "Compound": "Fc1ccc(-c2ccc3[nH]c4ncnc(N[C@H]5CC[C@H](N6CCOCC6)CC5)c4c3c2)c(F)c1",
    "Assigned Category": "N"
  }
]
